EXPERIMENTAL_TARGET: orexin-2 receptor (Homo sapiens, UniProt O43614)
EXPERIMENT_NOTES: Orexin radioligand binding assay (125I-orexin A, adherent recombinant cells)
RUN_CONDITIONS: 125I-orexin A displacement, recombinant CHO-K1 or HEK-293 cells expressing the orexin receptor

COMPOUND | UNIT_INFO | Ki
COc1ccccc1NC(=O)N[C@H]1COC(C)(C)O[C@H]1c1ccccc1 | nM | 6000
CC1(c2ccccc2)OC[C@H](NC(=O)Nc2ccccc2Br)[C@H](c2ccccc2)O1 (some centres unmarked) | nM | 2600
Cc1ccc(Cl)c(NC(=O)N[C@H]2COC(C)(C)O[C@H]2c2ccccc2)c1 | nM | 27
CC1(C)OC[C@H](NC(=O)Nc2ccc(I)cc2)[C@H](c2ccccc2)O1 | nM | 45
CC1(C)OC[C@H](NC(=O)Nc2cc(Cl)ccc2Cl)[C@H](c2ccccc2)O1 | nM | 98
CC1(C)OC[C@H](NC(=O)Oc2ccccc2Cl)[C@H](c2ccccc2)O1 | nM | 2600
CC1(C)OC[C@H](NC(=O)Nc2ccc(Br)cc2Br)[C@H](c2ccccc2)O1 | nM | 10
Cc1ccc(C)c(NC(=O)N[C@H]2COC(C)(C)O[C@H]2c2ccccc2)c1 | nM | 64

----------
Below, each entry is listed with its recorded Kb.
EXPERIMENTAL_TARGET: orexin receptors in PFSK-1 cells (Homo sapiens)
Construct: host or cells: PFSK-1
EXPERIMENT_NOTES: Intracellular calcium ion measurement (FLIPR, Fluo-3 AM) in PFSK-1 cells, antagonism of orexin agonist
Format: cell-based

SMILES | Kb / nM
Cc1ccc(NC(=O)N[C@H]2COC(C)(C)O[C@H]2c2ccccc2)c(Br)c1 | 6.31
CC1(C)OC[C@H](NC(=O)Nc2ccc(Br)cc2Br)[C@H](c2ccccc2)O1 | 5.01
CC1(C)OC[C@H](NC(=O)Nc2ccc(Cl)cc2Cl)[C@H](c2ccccc2)O1 | 25.1
CC1(C)OC[C@H](NC(=O)Nc2ccc(Br)cc2Cl)[C@H](c2ccccc2)O1 | 25.1

----------
EXPERIMENTAL_TARGET: orexin-2 receptor (Homo sapiens)
Sequence (O43614 1-444): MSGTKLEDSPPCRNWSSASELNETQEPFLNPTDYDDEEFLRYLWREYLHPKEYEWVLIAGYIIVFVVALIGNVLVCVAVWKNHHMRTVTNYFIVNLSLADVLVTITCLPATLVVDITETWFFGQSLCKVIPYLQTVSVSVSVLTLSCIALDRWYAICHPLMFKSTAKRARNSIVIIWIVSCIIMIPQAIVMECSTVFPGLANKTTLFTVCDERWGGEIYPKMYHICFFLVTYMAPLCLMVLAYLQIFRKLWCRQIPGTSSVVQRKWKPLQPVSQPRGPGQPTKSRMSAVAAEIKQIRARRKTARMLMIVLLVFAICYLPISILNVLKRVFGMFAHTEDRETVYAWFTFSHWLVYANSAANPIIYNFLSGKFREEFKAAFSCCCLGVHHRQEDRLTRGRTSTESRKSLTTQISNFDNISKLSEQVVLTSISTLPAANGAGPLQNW
EXPERIMENT_NOTES: Orexin radioligand binding assay (125I-orexin A, adherent recombinant cells)
RUN_CONDITIONS: 125I-orexin A displacement, recombinant CHO-K1 or HEK-293 cells expressing the orexin receptor
pKi: −log10 of the molar value.
Where pKi equals or exceeds 6, the correct label is yes (1); where it does not, the label is no (0).

COMPOUND | GROUP_LABEL
CC1(C)OC[C@H](NC(=O)Nc2ccc(-c3cccnc3)cc2)[C@H](c2ccccc2)O1 [Example 38] | yes (1)
CC1(C)OC[C@H](NC(=O)Nc2ccc(Cl)cc2)[C@H](c2ccccc2)O1 [Example 39] | yes (1)
Cc1ccccc1NC(=O)N[C@H]1COC(C)(C)O[C@H]1c1ccccc1 [Example 32] | yes (1)
Cc1ccc(NC(=O)N[C@H]2COC(C)(C)O[C@H]2c2ccccc2)c(Br)c1 [Example 12] | yes (1)
CC1(C)OC[C@H](NC(=O)Nc2ccc(F)cc2F)[C@H](c2ccccc2)O1 [Example 45] | no (0)
CC1(C)OC[C@H](NC(=O)Nc2cccc(Cl)c2)[C@H](c2ccccc2)O1 [Example 46] | no (0)
CC1(C)OC[C@H](NC(=O)Nc2ccccc2-c2cccnc2)[C@H](c2ccccc2)O1 [Example 23] | yes (1)
